Field: inhibition at 10 µM. Provide a value for each of the compounds that follow.
Tested on: JeKo-1 cells
Assay: Tumor cell growth inhibition by MTS method, JeKo-1
Format: cell-based
Settings: Homo sapiens, JeKo-1, 120 h, 10 μM, 5 days of culture, read-out: cell growth inhibition rate of compounds at 10 μM
Numbers only, in %.

In [3]: df
Out[3]:
                            chemical_smiles  result_value
0  Cc1ccc(NC(=O)c2cccc(C(F)(F)F)c2)cc1Nc1nc(-c2cccnc2)nc2c1ncn2C          19.1
1  Cc1ccc(NC(=O)c2cccc(C(F)(F)F)c2)cc1Nc1nc(-c2cccnc2)nc2[nH]cnc12          18.3
2  Cc1ccc(NC(=O)c2cccc(C(F)(F)F)c2)cc1Nc1nc(-c2cccnc2)cn2c(C)cnc12          16.5
3  Cc1ccc(C(=O)Nc2cccc(C(F)(F)F)c2)cc1Nc1nc(-c2cccnc2)nc2[nH]cnc12          16.2

Dear colleague, could you please provide inhibition at 10 µM for the compounds listed below?
1. Cn1ncc2c(NCc3cccnc3)nc(-c3cccc(NC(=S)Nc4cccc(C(F)(F)F)c4)c3)nc21
2. Cc1ccc(C(=O)Nc2cccc(C(F)(F)F)c2)cc1Nc1nc(-c2ccncc2)nc2[nH]cnc12
3. Cc1ccc(NC(=O)c2ccc(C(F)(F)F)cc2)cc1Nc1nc(-c2cccnc2)c2[nH]ccc2n1

Solution:
24.1
19
15.8

Dear colleague, could you please provide inhibition at 10 µM for the compounds listed below?
1. Cc1ccc(NC(=O)c2cccc(C(F)(F)F)c2)cc1Nc1nc(-c2cccnc2)nc2ccn(C)c12
2. Cc1ccc(C(=O)Nc2cccc(C(F)(F)F)c2)cc1Nc1nc(-c2cccnc2)cn2c(Br)cnc12
3. Cc1ccc(NC(=O)c2cccc(C(F)(F)F)c2)cc1Nc1nc(-c2cccnc2)cn2c(Br)cnc12
4. Cc1ccc(NC(=O)Nc2cccc(C(F)(F)F)c2)cc1Nc1nc(-c2cccnc2)c2[nH]ccc2n1

Solution:
12.3
14.7
17.5
35.1

Dear colleague, could you please provide inhibition at 10 µM for the compounds listed below?
1. Cc1ccc(NC(=O)c2cccc(C(F)(F)F)c2)cc1Nc1nc(-c2cccnc2)nc2[nH]ccc12
2. Cc1ccc(C(=O)Nc2cccc(F)c2)cc1Nc1nc(-c2cccnc2)cn2c(Br)cnc12
3. Cc1ccc(C(=O)Nc2cccc(C(F)(F)F)c2)cc1Nc1nc(-c2cccnc2)nc2[nH]ccc12
4. Cc1ccc(C(=O)Nc2cccc(C(F)(F)F)c2)cc1Nc1nc(-c2ccncc2)nc2[nH]ccc12
5. Cc1ccc(C(=O)Nc2cccc(OC(F)(F)F)c2)cc1Nc1nc(-c2cccnc2)c2[nH]ccc2n1

Solution:
[17.3, 16.9, 43.4, 18.7, 39]

----------
System: MDA-MB-231 cells
Assay: Vacuolation of MDA-MB-231 cells caused by inhibition of compounds on PIKfyve (microscopy); note: key: '+' represents the degree of vacuolation; ++: more '+' indicates more obvious vacuolation; +++: more '+' indicates more obvious vacuolation; ++++: more '+' indicates more obvious vacuolation; '−' represents no vacuolation
Type: cell-based
Settings: MDA-MB-231 cells, 1 μM, 48 h
METRIC: degree of vacuolation, 1 μM, 48 h

>>> print(df.to_string())
                            chemical_smiles       test_system  result_value
0  Cc1ccc(C(=O)Nc2cccc(C(F)(F)F)c2)cc1Nc1nc(-c2cccnc2)cn2ccnc12  MDA-MB-231 cells             +
1  Cc1ccc(NS(=O)(=O)c2cccc(C(F)(F)F)c2)cc1Nc1nc(-c2cccnc2)c2[nH]ccc2n1  MDA-MB-231 cells            ++
2  Cc1ccc(C(=O)Nc2cccc(C(F)(F)F)c2)cc1Nc1nc(-c2cccnc2)nc2[nH]cnc12  MDA-MB-231 cells             +
3  Cc1ccc(NC(=O)c2cccc(C(F)(F)F)c2)cc1Nc1nc(-c2cccnc2)cn2c(C)cnc12  MDA-MB-231 cells             −

----------
Test system: MDA-MB-231 cells
Assay: Vacuolation of MDA-MB-231 cells caused by inhibition of compounds on PIKfyve (microscopy); note: key: '+' represents the degree of vacuolation; ++: more '+' indicates more obvious vacuolation; +++: more '+' indicates more obvious vacuolation; ++++: more '+' indicates more obvious vacuolation; '−' represents no vacuolation
Type: cell-based
Details: MDA-MB-231 cells, 10 μM, 24 h
METRIC: degree of vacuolation, 10 μM, 24 h

The examples below pair each entry with its known result.
                            chemical_smiles  result_value
0  COc1ccc(C(=O)Nc2cccc(C(F)(F)F)c2)cc1Nc1nc(-c2cccnc2)c2[nH]ccc2n1            ++
1  Cc1ccc(NC(=O)c2cccc(C(F)(F)F)c2)cc1Nc1nc(-c2ccncc2)nc2cc[nH]c12             −
2  CN1CCN(Cc2cc(NC(=O)c3cccc(Nc4cc(-c5ccncc5)nc5[nH]ccc45)c3)cc(C(F)(F)F)c2)CC1             +
3  Cc1cccc(NC(=O)c2ccc(C)c(Nc3cc(-c4cccnc4)nc4[nH]ccc34)c2)c1             +

Dear colleague, could you please provide degree of vacuolation, 10 μM, 24 h for the molecules listed below?
1. Cc1ccc(C(=O)Nc2ccc(CN3CCN(C)CC3)c(C(F)(F)F)c2)cc1Nc1nc(-c2ccncc2)nc2cc[nH]c12
2. Cc1ccnc(Nc2nc(-c3cccc(NC(=O)c4cccc(C(F)(F)F)c4)c3)nc3ccsc23)c1

Solution:
1. −
2. +

Exercise: Report the value of degree of vacuolation, 10 μM, 24 h obtained on MDA-MB-231 cells for `Cc1ccc(NC(=O)c2cccc(C(F)(F)F)c2)cc1Nc1nc(-c2cccnc2)c2c(ccn2C)n1` .
Solution: +

----------
Test system: MDA-MB-231 cells
Test: Vacuolation of MDA-MB-231 cells caused by inhibition of compounds on PIKfyve (microscopy); note: key: '+' represents the degree of vacuolation; ++: more '+' indicates more obvious vacuolation; +++: more '+' indicates more obvious vacuolation; ++++: more '+' indicates more obvious vacuolation; '−' represents no vacuolation
Format: cell-based
Details: MDA-MB-231 cells, 10 μM, 24 h
METRIC: degree of vacuolation, 10 μM, 24 h

>>> df
                            chemical_smiles       test_system                              metric  result_value
0  O=C(Nc1cccc(C(F)(F)F)c1)c1cccc(Nc2cc(-c3cccnc3)nc3[nH]ccc23)c1  MDA-MB-231 cells  degree of vacuolation, 10 μM, 24 h             +
1  Cc1ccc(C(=O)Nc2cccc(C(F)(F)F)c2)cc1Nc1nc(-c2cccnc2)nc2c1cnn2C  MDA-MB-231 cells  degree of vacuolation, 10 μM, 24 h             +
2  Cc1cc(NC(=O)c2ccc(C)c(Nc3cc(-c4cccnc4)nc4[nH]ccc34)c2)n(C)n1  MDA-MB-231 cells  degree of vacuolation, 10 μM, 24 h             +
3  Cc1ccc(NC(=O)c2ccc(C(F)(F)F)cc2)cc1Nc1nc(-c2cccnc2)c2[nH]ccc2n1  MDA-MB-231 cells  degree of vacuolation, 10 μM, 24 h            ++
4  Cc1ccc(NC(=O)c2ccc(CN3CCOCC3)c(C(F)(F)F)c2)cc1Nc1nc(-c2cccnc2)cn2c(Br)cnc12  MDA-MB-231 cells  degree of vacuolation, 10 μM, 24 h             −

Dear colleague, could you please provide degree of vacuolation, 10 μM, 24 h for the molecules listed below?
1. Cc1ccc(C(=O)Nc2cccc(C(F)(F)F)c2)cc1Nc1cc(-c2cccnc2)nc2c1ccn2C
2. Cc1ccc(NC(=O)c2cccc(C(F)(F)F)c2)cc1Nc1cc(-c2cccnc2)nc2[nH]ccc12
3. COc1cccc(NC(=O)c2ccc(C)c(Nc3cc(-c4cccnc4)nc4[nH]ccc34)c2)c1
4. O=C(Nc1cccc(C(F)(F)F)c1)c1cccc(Nc2nc(-c3cccnc3)c3[nH]ccc3n2)c1
5. Cc1ccc(NC(=O)c2cccc(C(F)(F)F)c2)cc1Nc1nc(-c2cccnc2)nc2cc[nH]c12

Solution:
1. ++
2. +++
3. +
4. +++
5. +

----------
Tested on: MDA-MB-231 cells
Experiment: Vacuolation of MDA-MB-231 cells caused by inhibition of compounds on PIKfyve (microscopy); note: key: '+' represents the degree of vacuolation; ++: more '+' indicates more obvious vacuolation; +++: more '+' indicates more obvious vacuolation; ++++: more '+' indicates more obvious vacuolation; '−' represents no vacuolation
Type: cell-based
Settings: MDA-MB-231 cells, 10 μM, 24 h
METRIC: degree of vacuolation, 10 μM, 24 h

The examples below pair each entry with its known result.
>>> df
                                   compound       test_system  result_value
0  Cc1ccc(C(=O)Nc2cccc(C(F)(F)F)c2)cc1Nc1nc(-c2cccnc2)nc2cc[nH]c12  MDA-MB-231 cells            ++
1  CN1CCN(Cc2cc(NC(=O)c3cccc(Nc4cc(-c5cccnc5)nc5[nH]ccc45)c3)cc(C(F)(F)F)c2)CC1  MDA-MB-231 cells             −
2  Cc1ccc(Nc2nc(-c3cccc(NC(=O)c4ccc(N)nc4)c3)nc3ccsc23)nc1  MDA-MB-231 cells             −
3  Cc1cn(-c2cc(NC(=O)c3ccc(C)c(Nc4nc(-c5ccncc5)nc5cc[nH]c45)c3)cc(C(F)(F)F)c2)cn1  MDA-MB-231 cells            ++
4  Cc1ccc(NC(=O)c2cccc(C(F)(F)F)c2)cc1Nc1nc(-c2cccnc2)nc2ccn(C)c12  MDA-MB-231 cells            ++
5  Cc1ccc(C(=O)Nc2cccc(C(F)(F)F)c2)cc1Nc1nc(-c2cccnc2)cn2ccnc12 [VI-a-2]  MDA-MB-231 cells             +

Dear colleague, could you please provide degree of vacuolation, 10 μM, 24 h for the compounds listed below?
1. Cc1ccc(C(=O)Nc2cccc(C(F)(F)F)c2)cc1Nc1nc(-c2ccncc2)nc2ccn(C)c12
2. Cc1ccc(C(=O)Nc2cccc(C(F)(F)F)c2)cc1Nc1nc(-c2cccnc2)nc2[nH]ccc12
3. Cc1ccc(C(=O)Nc2ccc(CN3CCN(C)CC3)c(C(F)(F)F)c2)cc1Nc1nc(-c2cccnc2)c2[nH]ccc2n1

Solution:
1: ++; 2: +; 3: −

Dear colleague, could you please provide degree of vacuolation, 10 μM, 24 h for the compounds listed below?
1. Cc1ccc(NC(=S)Nc2cccc(C(F)(F)F)c2)cc1Nc1cc(-c2cccnc2)nc2[nH]ccc12
2. Cc1ccc(NC(=O)c2cccc(C(F)(F)F)c2)cc1Nc1cc(-c2cccnc2)nc2c1ccn2C

Solution:
1: +; 2: +++
